Reference source for all entries: the supplement of paper PMC10307832

test system: NCI-H1734; assay: relative viability (nuclei count vs DMSO), 5 days (fraction); higher = more cells survive; conditions: first compound 0.4 µM

{"compound": "Clc1ccc(Nc2nnc(Cc3ccncc3)c3ccccc23)cc1 [Vatalanib] + CCNC(=O)c1noc(-c2cc(C(C)C)c(O)cc2O)c1-c1ccc(CN2CCOCC2)cc1 [Luminespib] (partner 0.01 µM)", "test_system": "NCI-H1734", "relative viability": 0.193}
{"compound": "C[C@@H]1CN(CC(=O)Nc2ccc3c(c2)Cc2cccc(-c4cc(=O)cc(N5CCOCC5)o4)c2S3)C[C@H](C)O1 + NC(=O)Nc1cc(-c2cccc(F)c2)sc1C(=O)N[C@H]1CCCNC1 [AZD7762] (partner 0.2 µM)", "test_system": "NCI-H1734", "relative viability": 0.643}
{"compound": "Clc1ccc(Nc2nnc(Cc3ccncc3)c3ccccc23)cc1 [Vatalanib] + Cc1nc(Nc2ncc(C(=O)Nc3c(C)cccc3Cl)s2)cc(N2CCN(CCO)CC2)n1 [Dasatinib] (partner 0.075 µM)", "test_system": "NCI-H1734", "relative viability": 0.501}
{"compound": "C[C@@H]1CN(CC(=O)Nc2ccc3c(c2)Cc2cccc(-c4cc(=O)cc(N5CCOCC5)o4)c2S3)C[C@H](C)O1 + CS(=O)(=O)CCNCc1ccc(-c2ccc3ncnc(Nc4ccc(OCc5cccc(F)c5)c(Cl)c4)c3c2)o1 [Lapatinib] (partner 2 µM)", "test_system": "NCI-H1734", "relative viability": 1.03}

###

test system: NCI-H596; assay: relative viability (nuclei count vs DMSO), 5 days (fraction); higher = more cells survive; conditions: first compound 0.4 µM

{"compound": "Clc1ccc(Nc2nnc(Cc3ccncc3)c3ccccc23)cc1 [Vatalanib] + CC(=O)Nc1cccc(-n2c(=O)n(C3CC3)c(=O)c3c(Nc4ccc(I)cc4F)n(C)c(=O)c(C)c32)c1 [Trametinib] (partner 0.02 µM)", "relative viability": 0.76}
{"compound": "COc1cc(N2CCC(C(N)=O)CC2)ccc1Nc1nc(N)c(Cl)c(Nc2ccccc2S(=O)(=O)C(C)C)n1 [HG-5-88-01] + C[C@@H](Oc1cc(-c2cnn(C3CCNCC3)c2)cnc1N)c1c(Cl)ccc(F)c1Cl [Crizotinib] (partner 1 µM)", "relative viability": 1.02}
{"compound": "COc1cc(N2CCC(C(N)=O)CC2)ccc1Nc1nc(N)c(Cl)c(Nc2ccccc2S(=O)(=O)C(C)C)n1 [HG-5-88-01] + NC(=O)Nc1cc(-c2cccc(F)c2)sc1C(=O)N[C@H]1CCCNC1 [AZD7762] (partner 0.2 µM)", "relative viability": 1.04}
{"compound": "C[C@@H]1CN(CC(=O)Nc2ccc3c(c2)Cc2cccc(-c4cc(=O)cc(N5CCOCC5)o4)c2S3)C[C@H](C)O1 + Cc1nc(Nc2ncc(C(=O)Nc3c(C)cccc3Cl)s2)cc(N2CCN(CCO)CC2)n1 [Dasatinib] (partner 0.075 µM)", "relative viability": 0.572}

###

tested on: NCI-H2126; assay: relative viability (nuclei count vs DMSO), 5 days (fraction); higher = more cells survive; details: first compound 8 µM
// values below are reported relative viability

{"compound": "CCCCCCCCCCCC1=C(O)C(=O)C=C(O)C1=O [Embelin] + O=C(c1cc(Cc2n[nH]c(=O)c3ccccc23)ccc1F)N1CCN(C(=O)C2CC2)CC1 [Olaparib] (partner 8 µM)", "test_system": "NCI-H2126", "relative viability": 0.892}
{"compound": "CCCCCCCCCCCC1=C(O)C(=O)C=C(O)C1=O [Embelin] + C[C@@H](Oc1cc(-c2cnn(C3CCNCC3)c2)cnc1N)c1c(Cl)ccc(F)c1Cl [Crizotinib] (partner 1 µM)", "test_system": "NCI-H2126", "relative viability": 1.04}
{"compound": "CCCCCCCCCCCC1=C(O)C(=O)C=C(O)C1=O [Embelin] + O=C(CCCCCCC(=O)Nc1ccccc1)NO [Vorinostat] (partner 1 µM)", "test_system": "NCI-H2126", "relative viability": 0.6}
{"compound": "CCCCCCCCCCCC1=C(O)C(=O)C=C(O)C1=O [Embelin] + CS(=O)(=O)N1CCN(Cc2cc3nc(-c4cccc5[nH]ncc45)nc(N4CCOCC4)c3s2)CC1 [Pictilisib] (partner 1 µM)", "test_system": "NCI-H2126", "relative viability": 0.467}
{"compound": "CCCCCCCCCCCC1=C(O)C(=O)C=C(O)C1=O [Embelin] + C[C@]1(O)C[C@@H](c2nc(-c3ccc4ccc(-c5ccccc5)nc4c3)c3c(N)nccn32)C1 [Linsitinib] (partner 1 µM)", "test_system": "NCI-H2126", "relative viability": 0.676}
{"compound": "CCCCCCCCCCCC1=C(O)C(=O)C=C(O)C1=O [Embelin] + CC(=O)c1c(C)c2cnc(Nc3ccc(N4CCNCC4)cn3)nc2n(C2CCCC2)c1=O [Palbociclib] (partner 0.5 µM)", "test_system": "NCI-H2126", "relative viability": 0.339}
